Origin of values: paper PMC9497102

Task for the reader: assign each of the following compounds its reported logβ [Fe(II)L]^+.
testDetails: Iron(II) complex formation, UV-vis spectrophotometric titrations (anaerobic)
Assay type: physicochemical
conditionContext: T = 25.0 °C, I = 0.10 M (KCl), 30% (v/v) DMSO/H2O

Solved cases (3 shown):
- compound: "NC(=S)N/N=C1\\CCCc2cccnc21 [COTI-NH2]"
  logβ [Fe(II)L]^+: "17.36 ± 0.06"
- compound: "CN(C(=S)N/N=C1\\CCCc2cccnc21)C1CCCCC1 [COTI-NMeCy]"
  logβ [Fe(II)L]^+: "18.66 ± 0.03"
- compound: "CN(C)C(=S)NN=C1CCCc2cccnc21 (mixture of isomers) [COTI-NMe2]"
  logβ [Fe(II)L]^+: "17.62 ± 0.03"

# next compound below
Inquiry: Give logβ [Fe(II)L]^+ for the following compound: S=C(N/N=C1\CCCc2cccnc21)N1CCN(c2ccccn2)CC1 [COTI-2]
Reply text: 18.28 ± 0.06
